Entries and their IC50
TARGET: Tyrosinase (Agaricus bisporus, UniProt O42713)
Sequence (O42713 whole entry): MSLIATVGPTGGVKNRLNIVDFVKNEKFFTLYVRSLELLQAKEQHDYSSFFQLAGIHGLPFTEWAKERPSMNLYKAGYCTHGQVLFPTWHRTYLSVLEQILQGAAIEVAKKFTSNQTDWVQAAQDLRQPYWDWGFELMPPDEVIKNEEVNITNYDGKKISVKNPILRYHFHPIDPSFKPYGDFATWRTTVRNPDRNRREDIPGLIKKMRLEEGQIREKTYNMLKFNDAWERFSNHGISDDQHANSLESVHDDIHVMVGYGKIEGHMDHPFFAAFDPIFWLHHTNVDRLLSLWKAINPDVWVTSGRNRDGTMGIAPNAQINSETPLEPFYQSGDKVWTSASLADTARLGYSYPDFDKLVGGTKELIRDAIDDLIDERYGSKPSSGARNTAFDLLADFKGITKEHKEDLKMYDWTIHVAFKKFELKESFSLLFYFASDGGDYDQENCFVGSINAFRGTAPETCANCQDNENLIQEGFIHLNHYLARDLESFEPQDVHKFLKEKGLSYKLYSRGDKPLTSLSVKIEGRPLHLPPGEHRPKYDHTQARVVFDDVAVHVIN
Your answer should be a plain number; it is taken to be in µM.

Consider the following illustrative entries.
CCCCOCCOc1ccc(CC2C(=O)NC(=S)NC2=O)cc1
179
O=C1NC(=S)NC(=O)C1Cc1ccc(O)cc1
70
CCCCOCCOc1ccc(C=C2C(=O)NC(=O)NC2=O)cc1
45.4
COCCOCCOc1ccc(C=C2C(=O)NC(=O)NC2=O)cc1
137
COCCOCCOc1ccc(C=C2C(=O)NC(=S)NC2=O)cc1
34.2

I have this molecule here, `O=C1NC(=S)NC(=O)C1Cc1ccc(OCCO)cc1` , and I need its recorded IC50. 156

What about `COCCOc1ccc(C=C2C(=O)NC(=S)NC2=O)cc1` ? 28.4

---

Tested on: Staphylococcus aureus
TEST: Antibacterial activity against Staphylococcus aureus after 24 hrs by agar dilution method
Format: functional
PARAMETER: MIC

COCCOc1ccc(C=C2C(=O)NC(=S)NC2=O)cc1
> 12.5 µg/mL
O=C1NC(=O)C(Cc2ccc(O)cc2)C(=O)N1
> 12.5 µg/mL
COCCCCOc1ccc(CC2C(=O)NC(=O)NC2=O)cc1
> 12.5 µg/mL
O=C1NC(=O)C(=Cc2ccc(O)cc2)C(=O)N1
> 25 µg/mL

Attention now turns to another entry.
I have this molecule here, C[C@H]1COc2c(N3CCN(C)CC3)c(F)cc3c(=O)c(C(=O)O)cn1c23.C[C@H]1COc2c(N3CCN(C)CC3)c(F)cc3c(=O)c(C(=O)O)cn1c23.O [LEVOFLOXACIN] , and I need its recorded MIC. 0.4 µg/mL

---

Entries and their MIC
Test system: Staphylococcus aureus
TEST: Antibacterial activity against Staphylococcus aureus after 24 hrs by agar dilution method
Assay type: functional

Consider the following illustrative entries.
COCCOCCOc1ccc(C=C2C(=O)NC(=O)NC2=O)cc1
> 25 µg/mL
CCCCOCCOc1ccc(CC2C(=O)NC(=O)NC2=O)cc1
> 12.5 µg/mL
COCCCCOc1ccc(CC2C(=O)NC(=S)NC2=O)cc1
> 12.5 µg/mL
O=C1NC(=S)NC(=O)C1Cc1ccc(O)cc1
> 25 µg/mL
O=C1NC(=S)NC(=O)C1=Cc1ccc(O)cc1
3.1 µg/mL
CCCCOCCOc1ccc(C=C2C(=O)NC(=S)NC2=O)cc1
3.1 µg/mL
O=C1NC(=O)C(Cc2ccc(OCCO)cc2)C(=O)N1
> 12.5 µg/mL
COCCCCOc1ccc(C=C2C(=O)NC(=O)NC2=O)cc1
> 25 µg/mL

I have this molecule here, `COCCOc1ccc(CC2C(=O)NC(=O)NC2=O)cc1` , and I need its recorded MIC. > 12.5 µg/mL

What about `CCCCOCCOc1ccc(CC2C(=O)NC(=S)NC2=O)cc1` ? 6.25 µg/mL

What about `COCCOCCOc1ccc(C=C2C(=O)NC(=S)NC2=O)cc1` ? > 12.5 µg/mL

What about `COCCOCCOc1ccc(CC2C(=O)NC(=O)NC2=O)cc1` ? > 12.5 µg/mL
